system: KB; test: Cytotoxicity against human KB cells; format: functional, cell-based

| compound | valueUnits | IC50 |
| --- | --- | --- |
| CO[C@@H]1CCOP(=O)(NCCCl)N1CCCl (some centres not stated) | µM | 20 |
| CO[C@H]1CCOP(=O)(NCCCl)N1CCCl (some centres not stated) | µM | 22 |

---

experiment: Cytotoxicity against human RMS1 cells after 96 hrs by MTS assay; format: functional, cell-based; conditions: RMS1, 96 h
attributeMeasured: IC50 (µM)

| molecule | number |
| --- | --- |
| CC(C)CCCC(C)CCOC1CCOP(=O)(NCCCl)N1CCCl (stereo unspecified) | 11.3 |
